system: IGROV-1; assay: NCI tumour cell line growth inhibition, 48 h
The source made the active and inactive calls. Cut-off read from the data, not from the text of the source: active = GI50 up to about 1.1 µM and inactive = higher.
# maps each entry to its GI50
Measured quantity: GI50

* N#Cc1ccc(C2NN=CC23C(=O)c2ccccc2OC3c2ccccc2)cc1 (stereo not given) | 50.6 µM (inactive)
* CC1OC(n2ncc(=O)[nH]c2=O)C=CC1=O (stereo not given) | > 100 µM (inactive)
* CCOC(=O)C1OC(C2(C)OC3(OC4(C=CC3O)OC(C(C)C(=O)C(C)C(O)C(C)CC(C)c3c(Cl)cc(C)c(O)c3C(=O)O)C(C)CC4C)C(C)C2OC)CC1O (stereo not given) | 2.1 µM (inactive)
* O=C1C=CC(S(=O)(=O)C2=C/C(=C/Nc3ccc(Cl)cc3)C(=O)C=C2)=C/C1=C/Nc1ccc(Cl)cc1 | > 100 µM (inactive)
* Cc1ccc(C2(O)CC(c3ccc([N+](=O)[O-])o3)=NN2C(=O)COc2ccccc2Cl)cc1 (stereo not given) | 15.9 µM (inactive)

Value source: ChEMBL document CHEMBL1201862
